system: Pharbitis purpurea; experiment: Herbicidal action post-emergence (greenhouse pot trial); type: in vivo; settings: application rate 20 g/ha
Below: a set of entries, each annotated with reported Pharbitis purpurea (Efficacy in %).
The reply should contain only the number, in %.

# annotated cases, reported Pharbitis purpurea (Efficacy in %) shown
| Molecule | Pharbitis purpurea (Efficacy in %) |
| --- | --- |
| CC(Sc1cc(-n2c(=O)cc(C(F)(F)F)n(C)c2=O)c(F)cc1Cl)C(=O)OC1CCOC1 (stereo not drawn) | 100 |
| COC(C)COC(=O)C(C)Sc1cc(-n2c(=O)cc(C(F)(F)F)n(C)c2=O)c(F)cc1Cl (stereo not drawn) | 100 |

Here's the next entry for you.
In: Kindly indicate its recorded Pharbitis purpurea (Efficacy in %). Item: Cn1c(C(F)(F)F)cc(=O)n(-c2cc(SCC(C)(C)C(=O)OC3CCOC3)c(Cl)cc2F)c1=O (stereo not drawn)
Out: 100

----------
Below: a set of entries, each annotated with reported Stellaria media (Efficacy in %).
system: Stellaria media; assay: Herbicidal action post-emergence (greenhouse pot trial); type: in vivo; conditions: application rate 20 g/ha, scored visually after about 3 weeks vs untreated controls
The reply should contain only the number, in %.

# annotated cases, reported Stellaria media (Efficacy in %) shown
| Molecule | Reported value |
| --- | --- |
| Cn1c(C(F)(F)F)cc(=O)n(-c2cc(SCC(C)(C)C(=O)OCC3CCOCC3)c(Cl)cc2F)c1=O [I.48-93] | 100 |
| CC(C)=C(Sc1cc(-n2c(=O)cc(C(F)(F)F)n(C)c2=O)c(F)cc1Cl)C(=O)OCC1CCOC1 (stereo not shown) [I.42-72] | 90 |
| Cn1c(C(F)(F)F)cc(=O)n(-c2cc(SCC(C)(C)C(=O)OCC3CCCS3)c(Cl)cc2F)c1=O (stereo not shown) [I.48-81] | 100 |
| CC1CC(COC(=O)C(C)(C)CSc2cc(-n3c(=O)cc(C(F)(F)F)n(C)c3=O)c(F)cc2Cl)CO1 (stereo not shown) [I.48-73] | 100 |
| Cn1c(C(F)(F)F)cc(=O)n(-c2cc(SCC(C)(C)C(=O)OCC3CCCOC3)c(Cl)cc2F)c1=O (stereo not shown) [I.48-92] | 100 |

In: Kindly indicate its recorded Stellaria media (Efficacy in %). Item: CC(Sc1cc(-n2c(=O)cc(C(F)(F)F)n(C)c2=O)c(F)cc1Cl)C(=O)OCCCOCc1ccccc1 (stereo not shown) [I.1-30]
Out: 90

In: Kindly indicate its recorded Stellaria media (Efficacy in %). Item: CCC(C)C(Sc1cc(-n2c(=O)cc(C(F)(F)F)n(C)c2=O)c(F)cc1Cl)C(=O)OCC1CCCO1 (stereo not shown) [I.5-71]
Out: 80

----------
test system: Glycine max; assay: Crop compatibility post-emergence (greenhouse pot trial); assay type: in vivo; conditions: application rate 20 g/ha
Readout kind: Glycine max (Efficacy in %)
Just the number plus its unit, please.

# annotated cases, reported Glycine max (Efficacy in %) shown
| Compound | Reported value |
| --- | --- |
| CSCCNC(=O)C(C)Sc1cc(-n2c(=O)cc(C(F)(F)F)n(C)c2=O)c(F)cc1Cl (stereo not shown) | 20% |
| CC(Sc1cc(-n2c(=O)cc(C(F)(F)F)n(C)c2=O)c(F)cc1Cl)C(=O)OCC1CCOC1 (stereo not shown) | 10% |
| Cc1c(C(F)(F)F)n(C)c(=O)n(-c2cc(SC(CC(C)C)C(=O)OCC3CCCCO3)c(Cl)cc2F)c1=O (stereo not shown) | 20% |

Here's the next entry for you.
In: Fill in Glycine max (Efficacy in %) for CC(Sc1cc(-n2c(=O)cc(C(F)(F)F)n(C)c2=O)c(F)cc1Cl)C(=O)OCC1CCCO1 (stereo not shown) tested with Glycine max.
Out: 20%

----------
tested on: Triticum aestivum; assay: Crop compatibility post-emergence (greenhouse pot trial); format: in vivo; details: application rate 5 g/ha
Below: a set of entries, each annotated with reported Triticum aestivum (Efficacy in %).
Just the number plus its unit, please.

| Compound | Triticum aestivum (Efficacy in %) |
| --- | --- |
| Cn1c(C(F)(F)F)cc(=O)n(-c2cc(SCC(C)(C)C(=O)OCC3CCCCO3)c(Cl)cc2F)c1=O (stereo not shown) | 20% |

In: Kindly indicate its recorded Triticum aestivum (Efficacy in %). Item: CC(Sc1cc(-n2c(=O)cc(C(F)(F)F)n(C)c2=O)c(F)cc1Cl)C(=O)OCC1CCCCO1 (stereo not shown)
Out: 10%

In: Kindly indicate its recorded Triticum aestivum (Efficacy in %). Item: CC(Sc1cc(-n2c(=O)cc(C(F)(F)F)n(C)c2=O)c(F)cc1Cl)C(=O)OCCCSC(F)(F)F (stereo not shown)
Out: 10%

In: Kindly indicate its recorded Triticum aestivum (Efficacy in %). Item: CC(C)C(Sc1cc(-n2c(=O)cc(C(F)(F)F)n(C)c2=O)c(F)cc1Cl)C(=O)OCC1CCOC1 (stereo not shown)
Out: 20%

----------
test system: Zea mays; experiment: Crop compatibility post-emergence (greenhouse pot trial); assay type: in vivo; settings: application rate 20 g/ha
Readout kind: Zea mays (Efficacy in %)

| Compound | Zea mays (Efficacy in %) |
| --- | --- |
| CC(Sc1cc(-n2c(=O)cc(C(F)(F)F)n(C)c2=O)c(F)cc1Cl)C(=O)OC1CCSCC1 (centres unmarked) [I.1-132] | 20% |
| CC(Sc1cc(-n2c(=O)cc(C(F)(F)F)n(C)c2=O)c(F)cc1Cl)C(=O)NCC1COC(C)(C)O1 (centres unmarked) [I.1-334] | 20% |
| Cc1c(C(F)(F)F)n(C)c(=O)n(-c2cc(SCC(C)(C)C(=O)NCC3CCCO3)c(Cl)cc2F)c1=O (centres unmarked) [I.54-221] | 00% |

In: Kindly indicate its recorded Zea mays (Efficacy in %). Item: CC(Sc1cc(-n2c(=O)cc(C(F)(F)F)n(C)c2=O)c(F)cc1Cl)C(=O)OCC1CCSC1 (centres unmarked) [I.1-82]
Out: 20%

In: Kindly indicate its recorded Zea mays (Efficacy in %). Item: CC(Sc1cc(-n2c(=O)cc(C(F)(F)F)n(C)c2=O)c(F)cc1Cl)C(=O)OCC1CCCOC1 (centres unmarked) [I.1-92]
Out: 20%

In: Kindly indicate its recorded Zea mays (Efficacy in %). Item: COCCOC(=O)C(C)Sc1cc(-n2c(=O)cc(C(F)(F)F)n(C)c2=O)c(F)cc1Cl (centres unmarked) [I.1-1]
Out: 20%

In: Kindly indicate its recorded Zea mays (Efficacy in %). Item: CC(Sc1cc(-n2c(=O)cc(C(F)(F)F)n(C)c2=O)c(F)cc1Cl)C(=O)OCC1CCCCO1 (centres unmarked) [I.1-91]
Out: 20%

In: Kindly indicate its recorded Zea mays (Efficacy in %). Item: Cc1c(C(F)(F)F)n(C)c(=O)n(-c2cc(SC(CC(C)C)C(=O)OCC3CCCO3)c(Cl)cc2F)c1=O (centres unmarked) [I.14-71]
Out: 0%

----------
system: Hordeum murinum; experiment: Herbicidal action pre-emergence (greenhouse pot trial); type: in vivo; conditions: application rate 320 g/ha
Below: a set of entries, each annotated with reported Hordeum murinum (Efficacy in %).
The reply should contain only the number, in %.

In: Kindly indicate its recorded Hordeum murinum (Efficacy in %). Item: CCC(Sc1cc(-n2c(=O)cc(C(F)(F)F)n(C)c2=O)c(F)cc1Cl)C(=O)OCC1CCOC1 (centres unmarked)
Out: 90

In: Kindly indicate its recorded Hordeum murinum (Efficacy in %). Item: CCOCCCOC(=O)C(C)Sc1cc(-n2c(=O)cc(C(F)(F)F)n(C)c2=O)c(F)cc1Cl (centres unmarked)
Out: 80

In: Kindly indicate its recorded Hordeum murinum (Efficacy in %). Item: CC1CC(COC(=O)C(C)Sc2cc(-n3c(=O)cc(C(F)(F)F)n(C)c3=O)c(F)cc2Cl)CO1 (centres unmarked)
Out: 90

In: Kindly indicate its recorded Hordeum murinum (Efficacy in %). Item: CSCCNC(=O)C(C)Sc1cc(-n2c(=O)cc(C(F)(F)F)n(C)c2=O)c(F)cc1Cl (centres unmarked)
Out: 90

In: Kindly indicate its recorded Hordeum murinum (Efficacy in %). Item: CON(C(=O)C(C)Sc1cc(-n2c(=O)cc(C(F)(F)F)n(C)c2=O)c(F)cc1Cl)C1CCOC1 (centres unmarked)
Out: 80

In: Kindly indicate its recorded Hordeum murinum (Efficacy in %). Item: C=CCN(C(=O)C(C)Sc1cc(-n2c(=O)cc(C(F)(F)F)n(C)c2=O)c(F)cc1Cl)C(C)COC (centres unmarked)
Out: 90

In: Kindly indicate its recorded Hordeum murinum (Efficacy in %). Item: CC(Sc1cc(-n2c(=O)cc(C(F)(F)F)n(C)c2=O)c(F)cc1Cl)C(=O)NCC1(C)CCCO1 (centres unmarked)
Out: 100

In: Kindly indicate its recorded Hordeum murinum (Efficacy in %). Item: CC(Sc1cc(-n2c(=O)cc(C(F)(F)F)n(C)c2=O)c(F)cc1Cl)C(=O)NCC1CCCS1(=O)=O (centres unmarked)
Out: 90
